Data credit: the METLIN SMRT retention time set (Domingo-Almenara et al. 2019)

- Assay summary: gradient 5% acetonitrile 3 min, to 50% in 2 min, to 85% in 15 min, held 3 min, 100 µL/min
- Condition info: column: Zorbax Extend-C18 2.1 x 50 mm; eluents: water / acetonitrile, 0.1% formic acid

Compound	Unit string	RP-LC retention time
Cc1ccccc1CSc1nnc2c(S(=O)(=O)N3CCCC3)cccn12	s	861
CCc1c(C2CCN(C(=O)c3ccn(CC)n3)CC2)noc1N	s	644
COc1ccc2c(c1)C1(CCN(S(=O)(=O)c3ccc4c(c3)oc(=O)n4C)C1)C(=O)N2C (centres undefined)	s	818
CN(C)S(=O)(=O)c1ccc2c(c1)N(CC(=O)N1CCc3ccccc31)C(=O)C1CCCCN21 (centres undefined)	s	960
Clc1ccccc1OCc1nn2c(CSc3ccccc3)nnc2s1	s	1020
O=C(N[C@H]1C[C@@H]2C[C@H]1N(S(=O)(=O)c1ccc3c(c1)OCCO3)C2)c1cccs1	s	816
CNc1nc(Nc2ccccc2Cl)nc2ccccc12	s	683
O=C(NCc1ccc(F)cc1)C1CCCN(c2nnc3ccc(Cl)cn23)C1 (centres undefined)	s	749
CC1CCc2nc3ncn(CC(=O)Nc4ccc(Cl)cc4F)c(=O)c3cc2C1 (centres undefined)	s	858

---

- Assay summary: gradient 5% acetonitrile 3 min, to 50% in 2 min, to 85% in 15 min, held 3 min, 100 µL/min
- Condition info: column: Zorbax Extend-C18 2.1 x 50 mm; eluents: water / acetonitrile, 0.1% formic acid
Classify: 1 (yes) when RP-LC retention time is strictly less than 700 s; 0 (no) when RP-LC retention time is not.

Molecule	Class
Cc1nc(C(=O)N2CCSCC2)c(C)o1	1 (yes)
CCOC(=O)C1=C(CN(C)Cc2ccccc2)NC(=O)NC1c1ccc(C)cc1 (stereo not given)	1 (yes)
O=C(NCCc1ccccc1)N1[C@H]2CC[C@@H]1c1cncnc1C2	1 (yes)
CCOC(=O)c1c(C)[nH]c(C(=O)N2CCC(CC(=O)NCc3cccc(F)c3)CC2)c1C	0 (no)
COc1cc(OC)cc(-c2noc(-c3nnn(Cc4nc(-c5cccc(C)c5)oc4C)c3C)n2)c1	0 (no)
COc1ccccc1CNc1ncnc(N)c1[N+](=O)[O-]	0 (no)
CCc1nnc(-c2cccn2CC(=O)NCc2cccc(Br)c2)o1	0 (no)

---

- Assay summary: gradient 5% acetonitrile 3 min, to 50% in 2 min, to 85% in 15 min, held 3 min, 100 µL/min
- Condition info: column: Zorbax Extend-C18 2.1 x 50 mm; eluents: water / acetonitrile, 0.1% formic acid

Molecule	RP-LC retention time
C=CCNC(=O)CN1C(=O)C2CCCCN2c2ccc(C(=O)N3CCCC3)cc21 (stereo not given)	838 s
COCCNC(=O)C1(C)Cn2nc(-c3ccco3)cc2C(=O)N1c1ccc(OC)c(Cl)c1 (stereo not given)	776 s
COCCN1C(=O)c2ccccc2C(C(=O)Nc2ccc3c(c2)OCO3)C12CCCC2 (stereo not given)	816 s
CCn1cc(C(=O)Nc2cccc(Cl)c2)c(S(=O)(=O)N2CCSCC2)n1	890 s
Cc1ccc(NC(=O)Cn2nc(N3CCOCC3)c3ccccc3c2=O)cc1	789 s

---

Recorded RP-LC retention time for the following compounds
- Assay summary: gradient 5% acetonitrile 3 min, to 50% in 2 min, to 85% in 15 min, held 3 min, 100 µL/min
- Condition info: column: Zorbax Extend-C18 2.1 x 50 mm; eluents: water / acetonitrile, 0.1% formic acid
Recorded metric: RP-LC retention time (s)

Mol	Recorded metric	Unit string	Reported measurement
Fc1ccc(CN2CCc3nc(N4CCN(c5ccccc5F)CC4)ncc3C2)cc1F	RP-LC retention time	s	806
CCc1ccc(C(=O)N2CCN(c3nc(CN4CCCCCC4)cs3)CC2)cc1	RP-LC retention time	s	708
CC(=O)c1ccc(S(=O)(=O)NCCC2CCN(C(=O)c3ccccc3)CC2)cc1	RP-LC retention time	s	773
CS(=O)(=O)N(C1CCOCC1)C1CN(C(=O)NCc2ccccc2)C1	RP-LC retention time	s	660
Cc1cc(=O)n(CC(=O)NCCn2nc(-c3ccc(F)cc3)ccc2=O)cn1	RP-LC retention time	s	603

---

- Assay summary: gradient 5% acetonitrile 3 min, to 50% in 2 min, to 85% in 15 min, held 3 min, 100 µL/min
- Condition info: column: Zorbax Extend-C18 2.1 x 50 mm; eluents: water / acetonitrile, 0.1% formic acid
Recorded metric: RP-LC retention time (s)

Compound	Unit string	Reported measurement
O=C(Nc1ccc2c(c1)CN(C(=O)c1ccccc1)CC2)c1ccc(Br)o1	s	819
CCOc1nc2ccccc2nc1N1CCCC(C(=O)N2CCN(c3ccccc3)CC2)C1 (centres undefined)	s	1280
Cc1ccc(NS(=O)(=O)c2cc3n(c2)CCN(C)C3=O)cc1C	s	722
CN(Cc1ccccc1)c1ncc(C(=O)Nc2ccccc2)c(N)n1	s	731
O=C(NC1CCCCC1)C1CC(=O)N(c2ccc3c(c2)CCN3C(=O)C2CCC2)C1 (centres undefined)	s	824
O=C(O)COc1ccc(OCCNC[C@H](O)COc2ccccc2)cc1	s	679
Cc1ccc(-c2csc(-n3nc(C)c(CC(=O)N4CCc5ccccc5C4)c3C)n2)cc1	s	1310
CCOc1ccc(-c2noc(CN3C(=O)COc4ccccc43)n2)cc1	s	1030
Cc1nc(N2CCOCC2)c2c(C(=O)Nc3ccc(C)c(C)c3)c(C)oc2n1	s	882
O=C(O)c1cn2ccnc(-c3ccccc3)c2n1	s	644
Cc1oc(-c2[nH]ncc2C(=O)N(C)C)cc1S(=O)(=O)NC1CCCC1	s	650
O=S(=O)(c1ccc2c(c1)-c1oncc1CO2)N1CCN(Cc2ccc3c(c2)OCO3)CC1	s	666
N#CC1C=Cc2c(ccc3ccccc23)N1C(=O)c1ccccc1 (centres undefined)	s	1090
CCc1nc(-c2csc(S(=O)(=O)N3CCCC(C(=O)N(C)c4ccc(C)c(C)c4)C3)c2)no1 (centres undefined)	s	1140
CCOC(=O)C1CCN(Cc2nc(-c3ccc(N4CCC(C)CC4)nc3)no2)CC1	s	745
Cn1cc(S(=O)(=O)N2CCCCC2)cc1C(=O)N1CCN(c2ccc(F)cc2)CC1	s	940
CCC1(C(=O)Nc2ccc(C)c(F)c2)CCCCC(=O)N1 (centres undefined)	s	771
NC(=O)C1CCN(C(=O)c2ccc(CN3C(=O)CCn4nc(-c5cccc(Cl)c5)cc43)cc2)CC1	s	700
COc1ccccc1OCc1nc(-c2ccc3ncn(C(C)C)c3c2)no1	s	729
Cc1nn(CCCC(=O)NCCN(C)C)c(=O)c2c(-n3cccc3)n(-c3ccccc3)nc12	s	664
Cc1nn(CC(=O)N(C)Cc2ccco2)c(=O)c2c(C)n(-c3ccccc3)nc12	s	820
COc1ccc(NC(=O)Cn2c(=O)n(-c3ccccc3)c3ncccc32)cc1OC	s	729
C[C@@H](NC(=O)c1ccc(F)cc1)C(=O)NCc1cscn1	s	627
Cc1ccc(NC(=O)CCC(=O)O)c(C)c1	s	627
CCCNc1cc(N2CCC(CCC(=O)N(CC)CC)CC2)ncn1	s	538
CCOC(=O)c1ccc(N2C(=O)c3n[nH]c(C)c3C2c2ccc(OC)cc2OC)cc1 (centres undefined)	s	878
CCN1CCN(C(=O)C2CC(c3ccccc3)=NO2)CC1 (centres undefined)	s	593
Cc1ccc(Nc2c(-c3ccc(C(=O)O)cc3)nc3cnccn23)c(Br)c1	s	1080
COc1ccc(C2C(=O)N(C3CCCCC3)CC(=O)N2Cc2cccs2)cc1OC (centres undefined)	s	882
CC(=O)Nc1cccc(C(=O)NCCc2c[nH]c3ccc(Cl)cc23)c1	s	736
O=C(NCCCN1CCN(c2ccccc2)CC1)C1CCCN(c2nc3cccnc3s2)C1 (centres undefined)	s	643
CCC(C)Sc1nnc(NC(=O)C2CCN(C(=O)c3ccccc3)CC2)s1 (centres undefined)	s	854
O=C(c1ccc(CS(=O)(=O)c2c(Cl)cccc2Cl)o1)N1CCN(c2ccccn2)CC1	s	634
Cc1nnc2ccc(-c3noc(-c4cccc5[nH]ccc45)n3)cn12	s	843
CNC(=O)c1c(NC(=O)c2cccc(OC)c2)sc2c1CCC2	s	1050
Cc1ccc(C)c(Nc2c(-c3nc(C)no3)cnc3nc(C)ccc23)c1	s	813
Cc1ccc(-c2nnc(CC(=O)NCCC(C)C)o2)cc1	s	829
CC(=O)c1ccc(NC(=O)c2[nH]c3cc(C)sc3c2CN2CCCC2)cc1	s	665
CC1CCC(C(C)C)C(NC(=O)c2ccncc2)C1 (centres undefined)	s	894

---

- Assay summary: gradient 5% acetonitrile 3 min, to 50% in 2 min, to 85% in 15 min, held 3 min, 100 µL/min
- Condition info: column: Zorbax Extend-C18 2.1 x 50 mm; eluents: water / acetonitrile, 0.1% formic acid

Compound	RP-LC retention time / s
Cc1c(C(=O)NC2CC2)c(C)n(C)c1-c1ccccc1	830
CC(=O)c1cn(CC(=O)NC(C)c2ccc3c(c2)OCCCO3)c2ccccc12 (centres undefined)	794
O=C(Nc1ccc2c(c1)OCCO2)N1CCC(Cc2nc(-c3ccncc3)n[nH]2)C1 (centres undefined)	580
Cc1ccc(CNS(=O)(=O)c2ccc(-c3nnc(C4CC4)o3)o2)o1	816
Cc1nnc(N2CCCC(C(=O)N3CCN(c4ccccc4)CC3)C2)c2nn(-c3ccccc3)c(C)c12 (centres undefined)	759
COCCCNC(=O)c1nccnc1NC(=O)c1ccc(C)cc1	791
Cc1cc(F)ccc1NC(=O)CN1C(=O)C2CCCCN2c2ccc(S(=O)(=O)N(C)C)cc21 (centres undefined)	896
Cc1ccc(Nc2nc(-c3ccc(Cl)cc3)cs2)nc1	1050
O=C(c1ccc(S(=O)(=O)c2ccccc2)s1)N1CCN(c2ccccn2)CC1	652
